- SYSTEM UNDER TEST: human TNF-α (human, UniProt P01375 77-233, biotin label in the ELISA (site not stated); unlabelled in the L929 bioassay)
- Sequence (P01375 77-233 R107D limits assumed): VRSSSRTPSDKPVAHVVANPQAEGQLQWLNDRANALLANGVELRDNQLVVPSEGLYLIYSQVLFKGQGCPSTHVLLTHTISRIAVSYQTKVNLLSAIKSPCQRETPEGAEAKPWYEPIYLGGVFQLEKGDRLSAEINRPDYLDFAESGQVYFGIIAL
- PROTOCOL NOTES: cell-based or functional assay
QUANTITY MEASURED: hu TNF neutralization IC50 (nM)
Dear colleague, please return just the value in nM, with no unit written.

Some entries whose results are on file:
| BINDER | hu TNF neutralization IC50, nM |
| --- | --- |
| AE11-5 AM2 (antibody, V domains shown, Full length IgG converted from scFv clone J703M1S3#13; Human IgG1 (hCg1,z,non-a,mut(234,235)) with human kappa; also called J703M1S3#13) VH: EVQLVQSGAEVKKPGSSVKVSCKASGGTFSWYAISWVRQAPGQGLEWMGGITPILGAANYAQKFQGRVTITADESTSTVYMELSSLRSEDTAVYYCARGVYYDPKRADYWGQGTLVTVSS VL: EIVLTQSPDFQSVTPKEKVTITCRASQSIGSTLHWYQQKPDQSPKLLIKHASQSNSGVPSRFSGSGSGTDFTLTINSLEAEDAATYYCHQSSSLPPPTFGQGTKVEI | 1.24 |
| AE11-5 AM5 (antibody, V domains shown, Full length IgG converted from scFv clone J703M1S3#33; Human IgG1 (hCg1,z,non-a,mut(234,235)) with human kappa; also called J703M1S3#33) VH: EVQLVQSGAEVKKPGSSVKVSCKASGGTFSWYPISWVRQAPGQGLEWMGGITPILGAGIYAQKFQGRVTITADESTSTVYMELSSLRSEDTAVYYCARGVYYDFKRADYWGQGTLVTVSS VL: EIVLTQSPDFQSVTPKEKVTITCRASQSIGSSLHWYQQKPDQSPKLLIKHASQSTSGVPSRFSGSGSGTDFTLTINSLEAEDAATYYCHQSSSSPPSTFGQGTKVEIK | 0.968 |
| AE11-5 AM10 (antibody, V domains shown, Full length IgG converted from scFv clone J703M1S3#90; Human IgG1 (hCg1,z,non-a,mut(234,235)) with human kappa; also called J703M1S3#90) VH: EVQLVQSGAEVKKPGSSVKVSCKASGGTFSWYAISWVRQAPGQGLEWMGGITPILGSPIYAQKFQGRVTITADESTSTVYMELSSLRSEDTAVYYCARGVYYDYKRADYWGQGTLVTVSS VL: EIVLTQSPDFQSVTPKEKVTITCRASQSIGSNLHWYQQKPDQSPKLLIKHASQSISGVPSRFSGSGSGTDFTLTINSLEAEDAATYYCHQTRTSPPLTFGQGTKVEIK | 0.678 |
| AE11-5 AM3 (antibody, V domains shown, Full length IgG converted from scFv clone J703M1S3#26; Human IgG1 (hCg1,z,non-a,mut(234,235)) with human kappa; also called J703M1S3#26) VH: EVQLVQSGAEVKKPGSSVKVSCKASGGTFSWYAISWVRQAPGQGLEWMGGITPILGTANYAQKFQGRVTITADESTSTVYMELSSLRSEDTAVYYCARGVYYDPKRADYWGQGTLVTVSS VL: EIVLTQSPDFQSVTPKEKVTITCRASQSIGSRLHWYQQKPDQSPKLLIKHASQSTSGVPSRFSGSGSGTDFTLTINSLEAEDAATYYCHQSGSSPPRTFGQGTKVEIK | 0.291 |
| AE11-5 AM1 (antibody, V domains shown, Full length IgG converted from scFv clone J703M1S3#2; Heavy chain plasmid is pHybE-hCg1,z,non-a,mut(234,235), i.e. human IgG1 with mutations at 234 and 235; Light chain plasmid is pHybE-hCk, i.e. human kappa; also called J703M1S3#2) VH: EVQLVQSGAEVKKPGSSVKVSCKASGGTFSWYATSWVRQAPGQGLEWMGGITPILGSPIYAQKFQGRVTITADESTSTVYMELSSLRSEDTAVYYCARGVYYDHRRADYWGQGTLVTVSS VL: EIVLTQSPDFQSVTPKEKVTITCRASQSIGNTLHWYQQKPDQSPKLLIKHVSQSVSGVPSRFSGSGSGTDFTLTINSLEAEDAATYYCHQKVSSPSPTFGQGTKVEIK | 0.439 |
| AE11-5 AM4 (antibody, V domains shown, Full length IgG converted from scFv clone J703M1S3#30; Human IgG1 (hCg1,z,non-a,mut(234,235)) with human kappa; also called J703M1S3#30) VH: EVQLVQSGAEVKKPGSSVKVSCKASGGTFSWYAISWVRQAPGQGLEWMGGITPILGSPIYAQKFQGRVTITADESTSTVYMELSSLRSEDTAVYYCARGVYYDPKRADYWGQGTLVTVSS VL: EIVLTQSPDFQSVTPKEKVTITCRASQRIGSSLHWYQQKPDQSPKLLIKHASQSVSGVPSRFSGSGSGTDFTLTINSLEAEDAATYYCHQSRSSPPPTFGQGTKVEIK | 0.259 |
| AE11-5 AM6 (antibody, V domains shown, Full length IgG converted from scFv clone J703M1S3#35; Human IgG1 (hCg1,z,non-a,mut(234,235)) with human kappa; also called J703M1S3#35) VH: EVQLVQSGAEVKKPGSSVKVSCKASGGTFSWYAISWVRQAPGQGLEWMGGITPILGSATYAQKFQGRVTITADESTSTVYMELSSLRSEDTAVYYCARGIYYDPKRADYWGQGTLVTVSS VL: EIVLTQSPDFQSVTPKEKVTITCRASQTIGSSLHWYQQKPDQSPKLLIKHASQSISGVPSRFSGSGSGTDFTLTINSLEAEDAATYYCHQTSSLPTPTFGQGTKVEIK | 2.03 |
| AE11-5 AM9 (antibody, V domains shown, Full length IgG converted from scFv clone J703M1S3#69; Human IgG1 (hCg1,z,non-a,mut(234,235)) with human kappa; also called J703M1S3#69) VH: EVQLVQSGAEVKKPGSSVKVSCKASGGTFSWYAISWVRQAPGQGLEWMGGITPILGSPIYAQKFQGRVTITADESTSTVYMELSSLRSEDTAVYYCARGIYYDPKRADYWGQGTLVTVSS VL: EIVLTQSPDFQSVTPKEKVTITCRASQSIGSSLHWYQQKPDQSPKLLIKHVSQSLSGVPSRFSGSGSGTDFTLTINSLEAEDAATYYCHQRSSSPSPTFGQGTKVEIK | 0.391 |

--- query ---
Prompt: If you can, please state the reported hu TNF neutralization IC50 value of AE11-5 AM8 (antibody, V domains shown, Full length IgG converted from scFv clone J703M1S3#38; Human IgG1 (hCg1,z,non-a,mut(234,235)) with human kappa; also called J703M1S3#38) VH: EVQLVQSGAEVKKPGSSVKVSCKASGGTFSWYAISWVRQAPGQGLEWMGGITPILGTPIYAQKFQGRVTITADESTSTVYMELSSLRSEDTAVYYCARGVYYDFKRADYWGQGTLVTVSS VL: EIVLTQSPDFQSVTPKEKVTITCRASQTIGSSLHWYQQKPDQSPKLLIKHASQSISGVPSRFSGSGSGTDFTLTINSLEAEDAATYYCHQSSSSPPPTFGQGTKVEIK .
Response: 1.36
